B1: TPR 5TU (parent)
chain: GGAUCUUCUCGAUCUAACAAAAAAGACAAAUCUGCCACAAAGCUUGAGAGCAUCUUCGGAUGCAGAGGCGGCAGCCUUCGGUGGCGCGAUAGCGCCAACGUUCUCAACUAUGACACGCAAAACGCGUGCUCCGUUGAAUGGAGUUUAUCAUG

Variants of: B1
Assay: polymerase ribozyme fitness, log enrichment relative to wild type (log ratio); higher = more active; in vitro selection for triplet polymerase activity
Variants at the floor of the assay were thinned out.
Measured polymerase ribozyme fitness (log ratio) by item

Query (variant): A41U A52G A107U G140U C149A ; field requested: polymerase ribozyme fitness (log ratio)
≤ -4.2

Also A12C A113G A119U U145A ?
-3.25

Also A52C U61A G65A C95A G141U ?
-2.36

Also A26U C85U C105U ?
-1.82

Also U15A C18G C27U U55A G86A C96G U104A A150G ?
≤ -4.2

Also U45A G50A U135G ?
≤ -4.2

Also A39C G80A A97U G126U U144A ?
≤ -4.2

Also A21U C76G ?
≤ -4.2

Also A17G U45G G80U ?
≤ -4.2

Also C14A A19C G58U A89U ?
-2.28

Also C63U C75A G86A A89U A106U U134G ?
≤ -4.2

Also A17G A22G U56A ?
0.0483

Also C43U C85U G88U C96A C123G G124C C129U G133C U139C ?
≤ -4.2

Also C99U U104A U109C A115G ?
-3.79

Also G59A G100C ?
≤ -4.2

Also U6A C14U A41U G48U ?
-3.87

Also A22U G58C C87U U135C ?
-2.68

Also C18U U44A G46U A64G U77A A110C G140C U148A ?
≤ -4.2

Also C85U A150G ?
-1.76

Also A30C A91C A98U A119U ?
≤ -4.2

Also G62U G136A ?
0.626

Also A73U G84U G152A ?
-3.83
